- Experimental Target: vanilloid receptor (Rattus norvegicus, UniProt O35433)
- Construct: DRG nerve cells from the primary culture of 2 days were equilibrated; endogenous in cells
- Sequence (O35433 whole entry): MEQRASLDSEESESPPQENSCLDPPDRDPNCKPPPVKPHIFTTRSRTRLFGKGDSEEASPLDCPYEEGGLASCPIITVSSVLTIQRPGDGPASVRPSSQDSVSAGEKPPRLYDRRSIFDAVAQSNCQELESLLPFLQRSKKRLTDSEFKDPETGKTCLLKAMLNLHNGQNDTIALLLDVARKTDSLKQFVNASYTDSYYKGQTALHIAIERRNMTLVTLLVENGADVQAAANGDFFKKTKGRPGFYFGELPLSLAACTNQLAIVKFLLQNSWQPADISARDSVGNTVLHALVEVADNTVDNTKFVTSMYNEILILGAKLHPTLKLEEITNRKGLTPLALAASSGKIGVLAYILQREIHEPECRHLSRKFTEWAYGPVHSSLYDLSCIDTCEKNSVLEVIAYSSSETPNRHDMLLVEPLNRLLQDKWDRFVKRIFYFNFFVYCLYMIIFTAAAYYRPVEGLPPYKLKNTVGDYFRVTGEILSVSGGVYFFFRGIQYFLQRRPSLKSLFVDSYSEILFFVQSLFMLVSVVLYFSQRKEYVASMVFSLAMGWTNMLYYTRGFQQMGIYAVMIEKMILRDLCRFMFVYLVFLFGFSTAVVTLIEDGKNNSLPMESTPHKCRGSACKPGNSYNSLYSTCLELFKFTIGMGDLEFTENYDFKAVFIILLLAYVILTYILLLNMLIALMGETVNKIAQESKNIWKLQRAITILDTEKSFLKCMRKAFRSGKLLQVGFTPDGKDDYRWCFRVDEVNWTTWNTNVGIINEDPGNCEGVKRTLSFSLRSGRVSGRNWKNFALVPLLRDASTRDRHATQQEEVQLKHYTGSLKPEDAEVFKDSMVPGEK
- Measurement Description: 45Ca influx test (antagonist calcium uptake test) in rat DRG neurons stimulated with capsaicin
- Settings: neonatal SD rat DRG neurons; capsaicin 0.5 μM; 45Ca
pIC50: −log10 of the molar value.
Measure: pIC50

>>> df
                         structure_notation  measure  comparative_sign  reported_result
0  C[C@@H](NC(=O)c1coc(Oc2ccc3ncccc3c2)n1)c1cc(F)c(NS(C)(=O)=O)c(F)c1    pIC50                 =             4.92
1  C=C(C)c1cc(Oc2nc(C(=O)N[C@H](C)c3cc(F)c(NS(C)(=O)=O)c(F)c3)co2)cc(C(F)(F)F)c1    pIC50                 =             6.02
2  C[C@@H](NC(=O)c1coc(-c2ccc(-c3ccccc3)cc2)n1)c1cc(F)c(NS(C)(=O)=O)c(F)c1    pIC50                 <             5.00
3  C[C@@H](NC(=O)c1coc(Oc2cccc(C(F)(F)F)c2Cl)n1)c1cc(F)c(NS(C)(=O)=O)c(F)c1    pIC50                 =             6.11

----------
- Experimental Target: vanilloid receptor (Rattus norvegicus)
- Construct: DRG nerve cells from the primary culture of 2 days were equilibrated; endogenous in cells; host or cells: primary culture of dorsal root ganglion neurons from neonatal SD rats
- Measurement Description: 45Ca influx test (antagonist calcium uptake test) in rat DRG neurons stimulated with capsaicin
- Assay type: cell-based
- Settings: neonatal SD rat DRG neurons; capsaicin 0.5 μM; 45Ca
pIC50: −log10 of the molar value.
Measure: pIC50

>>> df
                                    compound  comparative_sign  reported_result
 0  CS(=O)(=O)Nc1ccc(CNC(=O)c2ccc(-c3cccc(C(F)(F)F)c3)o2)cc1F [Example 118]                 =             6.43
 1  C[C@@H](NC(=O)c1coc(Nc2cccc(C(F)(F)F)c2)n1)c1cc(F)c(NS(C)(=O)=O)c(F)c1 [Example 44]                 =             5.26
 2  CC(C)c1ccc(I)c(Oc2nc(C(=O)N[C@H](C)c3cc(F)c(NS(C)(=O)=O)c(F)c3)co2)c1 [Example 52]                 =             5.74
 3  C[C@@H](NC(=O)c1coc(Oc2cccc3c2OC(C)(C)C3)n1)c1cc(F)c(NS(C)(=O)=O)c(F)c1 (stereo in doubt) [Example 34]                 =             6.40
 4  C[C@@H](NC(=O)c1csc(-c2cc(C(F)(F)F)cc(C(F)(F)F)c2)n1)c1cc(F)c(NS(C)(=O)=O)c(F)c1 [Example 93]                 =             6.04
 5  CC(C)c1cc(Oc2nc(C(=O)N[C@H](C)c3cc(F)c(NS(C)(=O)=O)c(F)c3)co2)cc(C(F)(F)F)c1 [Example 40]                 =             5.96
 6  C[C@@H](NC(=O)c1coc(Oc2cccc(C3CCCC3)c2)n1)c1cc(F)c(NS(C)(=O)=O)c(F)c1 [Example 51]                 =             5.96
 7  C[C@@H](NC(=O)c1coc(Oc2cccc(Br)c2)n1)c1cc(F)c(NS(C)(=O)=O)c(F)c1 [Example 15]                 =             6.22
 8  C[C@@H](NC(=O)c1ccc(-c2cc(C(F)(F)F)cc(C(F)(F)F)c2)o1)c1cc(F)c(NS(C)(=O)=O)c(F)c1 [Example 123]                 =             7.35
 9  C[C@@H](NC(=O)c1coc(-c2cc(Cl)cc(Cl)c2)n1)c1cc(F)c(NS(C)(=O)=O)c(F)c1 [Example 83]                 =             6.06
10  CCN(CC)c1cccc(Oc2nc(C(=O)N[C@H](C)c3cc(F)c(NS(C)(=O)=O)c(F)c3)co2)c1 [Example 8]                 =             5.57
11  Cc1cccc(-c2nc(C(=O)N[C@H](C)c3cc(F)c(NS(C)(=O)=O)c(F)c3)co2)c1C [Example 90]                 =             6.04
12  C[C@@H](NC(=O)c1coc(Oc2cccc(I)c2)n1)c1cc(F)c(NS(C)(=O)=O)c(F)c1 [Example 58]                 =             7.03
13  C[C@@H](NC(=O)c1coc(Oc2cccc(C(C)(C)C)c2)n1)c1cc(F)c(NS(C)(=O)=O)c(F)c1 [Example 1]                 =             6.82
14  C[C@@H](NC(=O)c1ccc(-c2ccc(F)c(C(F)(F)F)c2)o1)c1cc(F)c(NS(C)(=O)=O)c(F)c1 [Example 124]                 =             7.38
15  CC1CCCc2c(Oc3nc(C(=O)N[C@H](C)c4cc(F)c(NS(C)(=O)=O)c(F)c4)co3)cccc21 (stereo partly shown) [Example 39]                 =             6.54
16  C[C@@H](NC(=O)c1coc(-c2cccc(N(C)C)c2)n1)c1cc(F)c(NS(C)(=O)=O)c(F)c1 [Example 81]                 =             6.00
17  CS(=O)(=O)Nc1c(F)cc(CNC(=O)c2ccc(-c3cccc(C(F)(F)F)c3)o2)cc1F [Example 110]                 =             6.21
18  C[C@@H](NC(=O)c1cc(-c2ccc(Br)cc2)oc1C(F)(F)F)c1cc(F)c(NS(C)(=O)=O)c(F)c1 [Example 62]                 =             6.36
19  CS(=O)(=O)Nc1c(F)cc(CNC(=O)c2ccc(-c3ccc(C(F)(F)F)cc3)s2)cc1F [Example 60]                 =             5.21
20  C[C@@H](NC(=O)c1ccc(-c2cccc(C(F)(F)F)c2)o1)c1cc(F)c(NS(C)(=O)=O)c(F)c1 [Example 120]                 =             7.19
21  CC(=O)c1cccc(-c2nc(C(=O)N[C@H](C)c3cc(F)c(NS(C)(=O)=O)c(F)c3)co2)c1 [Example 76]                 <             5.00
22  C[C@@H](NC(=O)c1coc(Oc2cccc3c2CCC3C(F)(F)F)n1)c1cc(F)c(NS(C)(=O)=O)c(F)c1 (stereo in doubt) [Example 57]                 =             6.48
23  C[C@@H](NC(=O)c1coc(-c2ccccc2Cl)n1)c1cc(F)c(NS(C)(=O)=O)c(F)c1 (stereo in doubt) [Example 84]                 =             5.13
24  C[C@@H](NC(=O)c1coc(-c2cc(Br)cc(C3CC3)c2)n1)c1cc(F)c(NS(C)(=O)=O)c(F)c1 [Example 115]                 =             6.11
25  C[C@@H](NC(=O)c1coc(Oc2cccc(C(F)(F)F)c2C2CC2)n1)c1cc(F)c(NS(C)(=O)=O)c(F)c1 [Example 46]                 =             6.37
26  C[C@@H](NC(=O)c1csc(Cc2ccc(C(C)(C)C)cc2)n1)c1cc(F)c(NS(C)(=O)=O)c(F)c1 [Example 10]                 =             5.19
27  C[C@@H](NC(=O)c1ccc(-c2cccc(C3CC3)c2)o1)c1cc(F)c(NS(C)(=O)=O)c(F)c1 [Example 102]                 =             7.00

----------
- System: Male ICR mice
- Measurement Description: Analgesic activity test: mouse writhing test by inducing with phenyl-p-quinone
- Format: in vivo
- Settings: po, dose 3 mg/kg, p.o., read-out: Analgesic effect (% Inhibition)
Measure: inhibition in vivo at 3 mg/kg

>>> df
                         structure_notation  reported_result
0  C[C@@H](NC(=O)c1ccc(-c2ccccc2C(F)(F)F)o1)c1cc(F)c(NS(C)(=O)=O)c(F)c1              38%
1  C[C@@H](NC(=O)c1coc(-c2cccc(C3CC3)c2)n1)c1cc(F)c(NS(C)(=O)=O)c(F)c1              35%
2  C[C@@H](NC(=O)c1csc(-c2cccc(C3CC3)c2)n1)c1cc(F)c(NS(C)(=O)=O)c(F)c1              33%
3  CS(=O)(=O)Nc1ccc(CNC(=O)c2ccc(-c3cccc(C(F)(F)F)c3)o2)cc1F              42%
4  C[C@@H](NC(=O)c1coc(Oc2cccc(C(F)(F)F)c2C2CC2)n1)c1cc(F)c(NS(C)(=O)=O)c(F)c1              53%
5  C[C@@H](NC(=O)c1coc(-c2cccc(C(F)(F)F)c2)n1)c1cc(F)c(NS(C)(=O)=O)c(F)c1              43%
6  C[C@@H](NC(=O)c1coc(Oc2cccc(C(C)(C)C)c2)n1)c1cc(F)c(NS(C)(=O)=O)c(F)c1              21%
7  CC(C)c1cccc(Oc2nc(C(=O)N[C@H](C)c3cc(F)c(NS(C)(=O)=O)c(F)c3)co2)c1              28%
